system: RSK2(Kin.Dom.2-C-terminal); construct: gene RPS6KA3; conditions: concentration: 1 μM, replicates: in singlicate; n = 1;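 note: KINOMEscan kinase panel screen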
endpoint: %Inh (%)
Give bare numbers, in %.

Reference set (5 entries):
What %Inh value was documented for this compound, Fc1ccc(-c2ncn(C3CCNCC3)c2-c2ccnc(Oc3ccc(-c4ccccc4)cc3)n2)cc1 [SB-245391] ?
41

Likewise for COc1cc(Nc2nccc(-c3c(-c4cccc(NC(=O)c5c(F)cccc5F)c4)nn4ccccc34)n2)cc(OC)c1OC [GSK323521] ?
47

Likewise for COc1cc(Nc2ncc3c(C)nc(-c4cc5ccccc5[nH]4)n3n2)cc(OC)c1OC [GW869516] ?
32

Likewise for `Cn1cc(-c2[nH]c3cc(NC(=O)[C@H](N)C4CCCCC4)cc4c3c2C=NNC4=O)cn1` ?
0

Likewise for Cl.c1ccc(-c2ccc3c(Nc4ccc5[nH]ccc5c4)ccnc3c2)nc1 [GW440138] ?
0

Provide reported %Inh for each item, in the same order as listed.
1. CCc1ccc(-c2ccc3c(c2)-c2c(cnn2C)S(=O)(=O)N3C)cc1
2. CC(C)c1nc(-c2cccc(NS(=O)(=O)c3c(F)cccc3F)c2F)c(-c2ccnc(Nc3ccc(N4CCOCC4)nc3)n2)s1 [GSK2008607]

1. 29
2. 0

* * *

tested on: RSK3(Kin.Dom.2-C-terminal); construct: gene RPS6KA2; settings: concentration: 1 μM, replicates: in singlicate; n = 1
endpoint: %Inh (%)
Numbers only, in %.

Provide reported %Inh for each item, in the same order as listed.
1. COc1cccc(C2=C(Nc3ccc(Cl)c(C(=O)O)c3)C(=O)NC2=O)c1
2. CC(=O)Nc1nc2cnc(Nc3cc(NC(=O)c4cccc(C5(C#N)CC5)c4Cl)ccc3C)nc2s1

1: 0; 2: 10

* * *

tested on: ERK1; construct: gene MAPK3; conditions: concentration: 1 μM, replicates: in singlicate; n = 1
For each entry below, report its %Inh value.
# include the unit after the value

Reference set (6 entries):
What %Inh value was documented for this compound, `Cc1ccc(C(=O)N2CC[C@@H](O)C2)cc1-n1c(C)cc(OCc2ccc(F)cc2F)c(Br)c1=O` ?
0%

Likewise for `C[C@@H](Oc1cc(-n2cnc3cc(-c4ccnc(NCCS(C)(=O)=O)c4)ccc32)sc1C(N)=O)c1ccccc1Cl` ?
0%

Likewise for `Cn1cc(-c2ccc3c(c2)CCN3C(=O)Cc2cccc(Cl)c2)c2c(N)ncnc21` ?
0%

Likewise for `CCCCc1nn2ncccc2c1-c1ccnc(Nc2ccc(N3CCN(C)CC3)cc2)n1` ?
0%

Likewise for `O=C(Nc1cccc(-c2nn3ccccc3c2-c2ccnc(Nc3cccc(C(F)(F)F)c3)n2)c1)c1c(F)cccc1F` ?
0%

Likewise for `CC(C)c1nc(-c2cccc(NS(=O)(=O)c3c(F)cccc3F)c2F)c(-c2ccnc(Nc3ccc(N4CCOCC4)nc3)n2)s1` ?
0%

Provide reported %Inh for each item, in the same order as listed.
1. NCCCC(NC(=O)c1cc(Br)c(-c2ccnc3[nH]ccc23)s1)c1ccccc1.O=C(O)C(F)(F)F.O=C(O)C(F)(F)F (stereo not shown)
2. COc1cc(Nc2ncc3c(C)nc(-c4cc5ccccc5[nH]4)n3n2)cc(OC)c1OC
3. Cl.Cl.NCC(NCc1ccc(-c2ccnc3[nH]ccc23)s1)c1ccccc1 (stereo not shown)

12%
0%
0%
